Test system: UACC-257
assay remarks: NCI tumour cell line growth inhibition, 48 h
Activity calls are given as the source filed them. Cut-off read from the data, not from the text of the source: active = GI50 up to about 1.1 µM and inactive = higher.
measurement type: GI50

[[record]]
compound = "CC(=O)O[C@]12CCCCC1C1(O)C(O)CCCCC12 (stereo partly specified)"
measurement_type = "GI50"
val = "> 100 µM (inactive)"

[[record]]
compound = "Nc1ccc(OCCCc2c(-c3ccccc3)[nH]c(N)nc2=O)cc1"
measurement_type = "GI50"
val = "80.5 µM (inactive)"


State recorded GI50 for all listed compounds.
1. Cn1ccnc1CCc1ccc(Cl)c(Cl)c1
2. COc1cc(Br)cc2cc(-c3cn4ccsc4n3)c(=O)oc12
3. Cc1nn2c(C(=O)N/N=C/c3ccc([N+](=O)[O-])cc3)c(C)nc2s1
4. CNCC(=O)Nc1ccc2c(c1)C(=O)c1ccc(NC(=O)CNC)cc1C2=O

OUTPUT:
1. > 100 µM (inactive)
2. 37.6 µM (inactive)
3. > 100 µM (inactive)
4. 4.36 µM (inactive)

----------
System: A498
assay remarks: NCI tumour cell line growth inhibition, 48 h
Calls of active or inactive are those of the source. Cut-off read from the data, not from the text of the source: active = GI50 up to about 1.1 µM and inactive = higher.
The reply should be one of these categories: active, inactive

Take a look at these entries with their results.
[[record]]
molecule = "CSc1nc(Cl)c2c(n1)Sc1ncnn1C2O (stereo unspecified)"
study_target = "A498"
assigned_category = "inactive"

[[record]]
molecule = "CCCCC(=O)c1c(O)nc2sccn2c1=O"
study_target = "A498"
assigned_category = "inactive"

[[record]]
molecule = "CC(NNC(=O)c1cc[n+]([BH2-]C#N)cc1)c1ccccc1F (stereo unspecified)"
study_target = "A498"
assigned_category = "inactive"


INPUT: For "Cc1nn2c(C(=O)N/N=C/c3ccc([N+](=O)[O-])cc3)c(C)nc2s1" , which call appears in the assay record?
OUTPUT: inactive

INPUT: For "COc1cc2c(cc1OC)CCN=C2" , which call appears in the assay record?
OUTPUT: inactive

INPUT: For OCC(O)COCn1cc(Cn2ncc3c(O)ncnc32)nn1 (stereo unspecified) , which call appears in the assay record?
OUTPUT: inactive

INPUT: For O=C(O)CC(NC(=O)/C(=C/c1ccccc1)NC(=O)c1ccccc1)C(=O)O (stereo unspecified) , which call appears in the assay record?
OUTPUT: inactive

INPUT: For COC(=O)/C(=N\NC(=O)C[N+](C)(C)C)C(C(=O)OC)C(=O)C(=O)Nc1ccccc1C(N)=O (stereo unspecified) , which call appears in the assay record?
OUTPUT: inactive

INPUT: For "O[C@@]12Cc3c([nH]c4ccccc34)[C@@H]3Oc4c(-c5ccccc5)ccc5c4[C@@]31CCN(CC1CC1)[C@@H]2C5" , which call appears in the assay record?
OUTPUT: inactive

INPUT: For "CC(C)/C(Cl)=N\OC(=O)Nc1ccc(F)cc1F" , which call appears in the assay record?
OUTPUT: inactive

INPUT: For "C[n+]1c(-c2ccc(/C=N\NC(=O)c3ccc(C(=O)N/N=C/c4ccc(-c5cn6ccsc6[n+]5C)cc4)cc3)cc2)cn2ccsc21" , which call appears in the assay record?
OUTPUT: inactive

INPUT: For COC(=O)c1c2c(cc3c1CC1(Cc4cc5c(c(C=O)c4C1)CCCC5)C3)CCCC2 (stereo unspecified) , which call appears in the assay record?
OUTPUT: inactive

----------
Tested on: TK-10
assay remarks: NCI tumour cell line growth inhibition, 48 h
The source made the active and inactive calls. Cut-off read from the data, not from the text of the source: active = GI50 up to about 1.1 µM and inactive = higher.
Task for the reader: assign each of the following molecules its reported GI50.

[[record]]
molecule = "O=C1O[C@H](COC(=O)c2ccccc2)[C@@H](OC(=O)c2ccccc2)C=C1OC(=O)c1ccccc1"
measurement_type = "GI50"
val = "27.9 µM (inactive)"

[[record]]
molecule = "C#Cc1cccc(NC(=O)/C=C\\C(=O)O)c1"
measurement_type = "GI50"
val = "> 100 µM (inactive)"

[[record]]
molecule = "O=c1[nH]nc(-c2ccccc2)n1/N=C\\c1ccccc1"
measurement_type = "GI50"
val = "> 100 µM (inactive)"

[[record]]
molecule = "CC/C=N\\N1C(N)=C(C#N)C(C#N)(C#N)C1CC (stereo unspecified)"
measurement_type = "GI50"
val = "> 100 µM (inactive)"

[[record]]
molecule = "CCOC(=O)N/N=C(/OCC)c1ccccc1"
measurement_type = "GI50"
val = "> 100 µM (inactive)"


Now look at this one.
INPUT: Look at this molecule and give its reported GI50. COc1cc2c(cc1OC)CN1CCc3ccccc3CC1C2 (stereo unspecified)
OUTPUT: 13.7 µM (inactive)

----------
Task for the reader: assign each of the following compounds its reported GI50.
Tested on: LOX IMVI
assay remarks: NCI tumour cell line growth inhibition, 48 h
Active and inactive are the calls of the source. Cut-off read from the data, not from the text of the source: active = GI50 up to about 1.1 µM and inactive = higher.

In the examples that follow, each entry is paired with its recorded GI50.
[[record]]
compound = "C=C1C(=O)O[C@H]2C[C@@H]1C(=O)CC(C)CCCC(C)=CCC[C@@]2(C)O (stereo partly specified)"
measurement_type = "GI50"
val = "> 25 µM (inactive)"

[[record]]
compound = "CCn1c2c(c3c(C(=O)OC)c(O)ccc31)C(=O)c1ccccc1C2=O"
measurement_type = "GI50"
val = "13.2 µM (inactive)"

[[record]]
compound = "CN(C)c1ccc(/C=C2\\CNC/C(=C\\c3ccc(N(C)C)cc3)C2=O)cc1"
measurement_type = "GI50"
val = "18.8 µM (inactive)"

[[record]]
compound = "O=C1CC(CC(=O)C2CCCCC2=O)C(=O)N1 (stereo unspecified)"
measurement_type = "GI50"
val = "> 100 µM (inactive)"

[[record]]
compound = "CCCCCCCCCCCC(=O)OC(COC(N)=O)COc1ccc(Cl)cc1 (stereo unspecified)"
measurement_type = "GI50"
val = "23.2 µM (inactive)"


State recorded GI50 for all listed compounds.
1. CC(=O)O[C@]12CCCCCC1C1(O)C(O)CCC[C@H]12 (stereo partly specified)
2. C[C@@H]1OC2(O)[C@H]3CCCN3S(=O)(=O)CCN2C1=O (stereo partly specified)

OUTPUT:
1. > 100 µM (inactive)
2. > 100 µM (inactive)

State recorded GI50 for all listed compounds.
1. O=C(c1ccccc1)n1c2ccc(Br)cc2c2nc3ccccc3nc21
2. O=C(Nc1ccc(Cl)cc1)c1cc(S(=O)(=O)N2CCNNC2=O)c(S)cc1Cl
3. CC(NCCN(C)C)C1CCC2C3CCc4cc(O)ccc4C3CCC12C (stereo unspecified)
4. O=C(CC(C(=O)c1cccs1)c1ccsc1)c1ccc(Cl)cc1 (stereo unspecified)

OUTPUT:
1. > 100 µM (inactive)
2. > 100 µM (inactive)
3. 2.03 µM (inactive)
4. > 100 µM (inactive)

----------
Tested on: HCC 2998
assay remarks: NCI tumour cell line growth inhibition, 48 h
Calls of active or inactive are those of the source. Rule as the data show it: active = GI50 up to about 1.1 µM and inactive = higher.
The reply should be one of these categories: YES = active, NO = inactive

INPUT: For "O=C(/C=C/c1ccc(Cl)c(Cl)c1)c1ccccc1Cl" , which call appears in the assay record?
OUTPUT: NO

INPUT: For "C=CC[C@H]1[C@H](O[Si](C)(C)C(C)(C)C)C=CC(=O)[C@@H]1CC(=O)OCC" , which call appears in the assay record?
OUTPUT: NO

INPUT: For "CCOC(=O)c1nnsc1NC(=O)NCCCCCCn1c(=O)n(CCCCCCNC(=O)Nc2snnc2C(=O)OCC)c(=O)n(CCCCCCNC(=O)Nc2snnc2C(=O)OCC)c1=O" , which call appears in the assay record?
OUTPUT: NO

INPUT: For "CC(=O)O[C@@H]1CO[C@H]2O[C@H]3[C@@H](C(C=O)=C[C@H](O)[C@@H]4C5=C(C(C)C)CC[C@]5(C)CC[C@@]34C)[C@@]2(O)C1=O" , which call appears in the assay record?
OUTPUT: YES

INPUT: For CC1(C)OC2CC(=O)OCC23C1CC(=O)C1(C)C3CCC2(C)C(c3ccoc3)OC(=O)C3OC321 (stereo not given) , which call appears in the assay record?
OUTPUT: NO

----------
System: K562
assay remarks: NCI tumour cell line growth inhibition, 48 h
Calls of active or inactive are those of the source. No stated cut-off is given here; in the data, active = GI50 up to about 1.1 µM and inactive = higher.
The reply should be one of these categories: active, inactive

Take a look at these entries with their results.
[[record]]
compound = "CC(=O)O[C@]12CCCCC1C1(O)C(O)CCCCC12 (some centres not stated)"
assigned_category = "inactive"

[[record]]
compound = "CC1=C(N2CC2)C(=O)c2nc3n(c2C1=O)CCC3O (configuration not stated)"
assigned_category = "active"


INPUT: For "[O-][n+]1c2c([n+]([O-])c3ccccc31)-c1cccc3cccc-2c13" , which call appears in the assay record?
OUTPUT: inactive

----------
Task for the reader: assign each of the following molecules its reported GI50.
System: M19-MEL
assay remarks: NCI tumour cell line growth inhibition, 48 h
Calls of active or inactive are those of the source. No stated cut-off is given here; in the data, active = GI50 up to about 1.1 µM and inactive = higher.

In the examples that follow, each entry is paired with its recorded GI50.
[[record]]
molecule = "Nc1ccc2c(c1)CN1C(=O)c3ccccc3C1=N2"
study_target = "M19-MEL"
val = "> 116 µM (inactive)"

[[record]]
molecule = "CC1=C(/C=C/C2=CC(=C\\C(=O)O)/CC(C3=C(C)CCCC3(C)C)C2)C(C)(C)CCC1 (centres undefined)"
study_target = "M19-MEL"
val = "15.3 µM (inactive)"

[[record]]
molecule = "Cc1ccc(-c2cc(-c3ccco3)c(C#N)c(=O)n2C2OC(OC(=O)c3ccccc3)C(OC(=O)c3ccccc3)C2OC(=O)c2ccccc2)cc1 (centres undefined)"
study_target = "M19-MEL"
val = "> 100 µM (inactive)"

[[record]]
molecule = "CC12CCC3(C1)[C@H](CC2=O)C[C@@H](OC(=O)c1ccccc1)C1C(C)(CO)CCC[C@@]13C (some centres undefined)"
study_target = "M19-MEL"
val = "3.4 µM (inactive)"

[[record]]
molecule = "c1cc(N(CCn2cccn2)CCn2cccn2)cc(N(CCn2cccn2)CCn2cccn2)c1"
study_target = "M19-MEL"
val = "> 100 µM (inactive)"


State recorded GI50 for all listed molecules.
1. CC(=O)O[C@]12CCCCCC1C1(O)C(O)CCC[C@H]12 (some centres undefined)
2. O=C1NC(=O)C(C(=O)C(=O)Nc2ccc(Cl)cc2Cl)C(=O)N1
3. CCC1(N=[N+]=[N-])C(=O)c2ccccc2N(C)C1=O (centres undefined)
4. O=c1[nH]c(=O)n(C2CC(O)C(O)C(CO)O2)cc1F (centres undefined)
5. Cc1ccc(S(=O)(=O)N(/N=C/C=C/c2ccccc2)c2nnc(-c3ccccc3)c(-c3ccccc3)n2)cc1
6. O=c1ccc2nc3cc(Br)ccc3sc-2c1

OUTPUT:
1. > 100 µM (inactive)
2. > 100 µM (inactive)
3. > 100 µM (inactive)
4. > 100 µM (inactive)
5. 28.1 µM (inactive)
6. 55.1 µM (inactive)

State recorded GI50 for all listed molecules.
1. COC1=CC(=O)C(O)=C(CC2(C)C(C)CCC3(C)C2CCCC3(C)C)C1=O (centres undefined)
2. CCCCCCCCCCCC(=O)OCC1OC(n2cc(F)c(=O)[nH]c2=O)C(NC(=O)OCc2ccccc2)C(OC(=O)CCCCCCCCCCC)C1O (centres undefined)
3. COc1cc2c3cc1Oc1c(OC)c(OC)cc4c1[C@@H](Cc1ccc(O)c(c1)Oc1ccc(cc1)C[C@@H]3N(C)CC2)N(C)CC4.c1ccccc1

OUTPUT:
2.16 µM (inactive)
> 100 µM (inactive)
13.4 µM (inactive)
